System: SNB-75 CNS
Test: NCI-60 one-dose screen, 48 h
Details: 10 µM
This is part of a sample that, as a whole, favours compounds with a hit. Of some 83,000 tested, about 20% had one in any assay. The source made the active and inactive calls. Rule for the calls: active = growth percent below 10; inactive = the rest.
Possible outcomes: active, inactive

Compound	System	Assigned class
CN(C)c1nc(NCCNS(=O)(=O)c2ccc(C(=O)/C=C/c3ccccc3)cc2)nc(Nc2ccc(F)cc2)n1	SNB-75 CNS	inactive
Cc1cc2c(c(O)c1Br)-c1ncoc1C(=O)[C@]1(C)CC[C@H](C(C)C)[C@H]21	SNB-75 CNS	inactive
COc1ccc(-c2cc(C(=O)N=Nc3c(O)[nH]c4ccc(F)cc34)c3ccccc3n2)cc1	SNB-75 CNS	inactive
COC(=O)CC1CC1C1Cc2c(nc(N(C)S(C)(=O)=O)nc2C(C)C)-c2ccc(F)cc21 (stereo not drawn)	SNB-75 CNS	inactive
CCN1CCN(Cc2ccc(NC(=O)c3cccc(-n4cc(-c5ccc(NC(C)=O)nc5)nn4)c3)cc2C(F)(F)F)CC1	SNB-75 CNS	inactive
COC[C@@H](CC(C)C)N=C1NC(=O)/C(=C/c2ccc3ncoc3c2)N1	SNB-75 CNS	active
Cc1ccc(C(C)C)cc1NC(=O)c1ccccc1N(C)C	SNB-75 CNS	inactive
CC(=O)c1ccc(Nc2nc(SCCC(C)C)nc(-c3ccc(F)cc3)c2C#N)cc1	SNB-75 CNS	inactive
O=c1[nH]n(C(=S)N/N=C/c2ccc(F)cc2)c(=O)c2ccccc12	SNB-75 CNS	inactive
O=C(/C=C/Nc1ccc(F)cc1F)c1ccc2c(c1)Nc1ccccc1S2	SNB-75 CNS	inactive
Oc1ccc(/C=C2\CCCc3cc4ccc(O)cc4[o+]c32)c(O)c1	SNB-75 CNS	inactive
CO[C@@H]1CSSC1Cn1nc(-c2ccc(Oc3ccccc3)cc2)c2c(N)ncnc21 (stereo partly drawn)	SNB-75 CNS	inactive
CCCCSc1nc(Nc2ccc(/C(C)=N/NC(N)=S)cc2)c(C#N)c(-c2ccccc2)n1	SNB-75 CNS	inactive
NC1=NC(c2ccccc2Cl)N=C(Nc2nn[nH]n2)N1 (stereo not drawn)	SNB-75 CNS	inactive
Cc1noc2c(Cc3ccc([N+](=O)[O-])cc3)nn(CC(=O)N/N=C/c3ccc(Br)cc3)c(=O)c12	SNB-75 CNS	inactive
COc1ccc(-c2ccc(/C=N/NC(=O)c3[nH]c4ccc(Br)cc4c3-c3ccccc3)s2)cc1	SNB-75 CNS	inactive
CC(C)CCSc1nc(NC2CC2)c(C#N)c(-c2ccc(C(C)C)cc2)n1	SNB-75 CNS	inactive
N[C@@H](CSSC[C@H](N)C(=O)Nc1ccc(OCC2CCCC2)cc1)C(=O)Nc1ccc(OCC2CCCC2)cc1	SNB-75 CNS	active
COc1cccc(-c2ccc(/C=N/NC(=O)c3[nH]c4ccc(Br)cc4c3-c3ccccc3)o2)c1	SNB-75 CNS	inactive
Cc1ccc(-c2ccc(SCC(=O)Nc3ccc(S(N)(=O)=O)cc3Br)nn2)cc1	SNB-75 CNS	inactive
Cc1ccc([N+](=O)[O-])c(C(=O)Nc2ccc(-c3ccc4c(c3)NC(=O)/C4=C\c3ccc[nH]3)cc2)c1	SNB-75 CNS	inactive
O=C(c1ccc(O)cc1)C1[C@H](c2ccc(Br)cc2)[C@@H](c2ccccc2)NC12C(=O)Nc1ccccc12 (stereo partly drawn)	SNB-75 CNS	inactive
Cc1cccc2cc(-c3cc(-c4ccccc4)nc(=S)[nH]3)c(Cl)nc12	SNB-75 CNS	inactive
OCCCNc1oc(-c2ccccc2)nc1[P+](c1ccccc1)(c1ccccc1)c1ccccc1	SNB-75 CNS	active
CN1CCN(c2ccc(C(=O)/C=C/c3ccc(C#N)cc3)cc2)CC1	SNB-75 CNS	inactive
COc1ccc(-c2nc(S(=O)(=O)c3ccc(C)cc3)c(S(=O)(=O)CC(=O)N(C)Cc3ccccc3)o2)cc1	SNB-75 CNS	inactive
C=CCn1c(SCC(=O)Nc2ccc(C(=O)/C=C/c3ccccc3)cc2)nnc1-c1c[nH]c2ccccc12	SNB-75 CNS	inactive
Cc1cc(C)cc(Oc2cccc(-c3c(C)nnn3C3CCN(CCN(C)C)CC3)n2)c1	SNB-75 CNS	inactive
CN1CCc2c(sc3ncnc(N/N=C/c4cn(-c5ccccc5)nc4-c4ccc(Br)cc4)c23)C1	SNB-75 CNS	inactive
CCCCCc1ccc(S(=O)(=O)Nc2cc(-c3csc(N(C)C(C)=O)n3)ccc2N2CCN(C)CC2)cc1	SNB-75 CNS	inactive
Cc1ccc(CNC(=O)Cc2ccc3c(c2)CN(C2CCC(=O)NC2=O)C3=O)cc1 (stereo not drawn)	SNB-75 CNS	active
COc1ccc(CN2[C@H](C(=O)NCCCCCCC(=O)NO)Cc3c([nH]c4ccccc34)[C@H]2C2CC2)cc1	SNB-75 CNS	inactive
O=C(c1ccc(Cl)cc1)C1[C@H](c2ccccc2Br)[C@@H](c2ccccc2)NC12C(=O)Nc1ccc(Br)cc12 (stereo partly drawn)	SNB-75 CNS	inactive
